Kindly supply the reported EC50 values for the records listed here.
biological target: T1, SARS-CoV-2 S on CHO-S cells (SARS-CoV-2, UniProt P0DTC2 14-1273); test: flow cytometry, CHO-S cells
T1 construct: whole, on cells
Numbers only, in nM.

- Binder: "NRCoV2-02 VHH-Fc (Fc fusion, bivalent VHH-Fc) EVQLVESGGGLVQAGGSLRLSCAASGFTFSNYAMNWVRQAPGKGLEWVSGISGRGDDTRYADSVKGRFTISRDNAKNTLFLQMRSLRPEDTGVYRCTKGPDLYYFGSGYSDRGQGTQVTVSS"
  EC50 (nM): 0.3
- Binder: "NRCoV2-03 VHH-Fc (Fc fusion, bivalent VHH-Fc) EVQLVSSGGGLVQAGGSLRLSCTASGITFSYYAMGWYRQAPGQPRELVASMSNMDSTIYADSVKGRFTISRDNAKTTIYLQMNNLKPEDTAVYFCNIYGPTYSTRRNEYWGQGTQVTVSS"
  EC50 (nM): 78.9
- Binder: "NRCoV2-SR02 VHH-Fc (Fc fusion, bivalent VHH-Fc) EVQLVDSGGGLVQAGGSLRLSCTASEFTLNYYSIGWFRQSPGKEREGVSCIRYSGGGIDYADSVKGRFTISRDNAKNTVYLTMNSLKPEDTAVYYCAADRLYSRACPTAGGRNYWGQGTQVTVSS"
  EC50 (nM): 1.2
- Binder: "NRCoV2-11a VHH-Fc (Fc fusion, bivalent VHH-Fc) EVQLQQSGGGLVQPGGSLRLSCAASGFTLDSYNIAWFRQAPGKEREWISYISRYYESTYYSDSVKGRFTTSRDGDKKTVSLQMNSLKSEDTAVYYCAARSRDFSSPISATDKYGSWGQGTQVTVSS"
  EC50 (nM): 2
- Binder: "NRCoV2-15 VHH-Fc (Fc fusion, bivalent VHH-Fc) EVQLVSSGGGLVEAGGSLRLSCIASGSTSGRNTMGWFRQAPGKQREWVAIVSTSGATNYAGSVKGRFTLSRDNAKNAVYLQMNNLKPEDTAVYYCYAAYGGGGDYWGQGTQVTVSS"
  EC50 (nM): 0.8

Please supply EC50 for each of the following items, keeping them in order.
1. NRCoV2-SR04 VHH-Fc (Fc fusion, bivalent VHH-Fc) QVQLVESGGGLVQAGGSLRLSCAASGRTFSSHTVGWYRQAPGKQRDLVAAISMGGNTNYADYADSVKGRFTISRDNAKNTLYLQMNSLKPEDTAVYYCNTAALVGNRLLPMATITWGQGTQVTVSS
2. NRCoV2-MRed05 VHH-Fc (Fc fusion) EVQLVESGGGLVQPGGSLRLSCAASGFTLDYYAIGWFRQAPGKEREGVSCISSSDGSTLYADSVKGRFTISRDNAKNTVYLQMNSLKPEDTAVYYCATGPQAYYSGSYYFQCPQAGMDYWGKGTQVTVSS
3. NRCoV2-SR01 VHH-Fc (Fc fusion, bivalent VHH-Fc) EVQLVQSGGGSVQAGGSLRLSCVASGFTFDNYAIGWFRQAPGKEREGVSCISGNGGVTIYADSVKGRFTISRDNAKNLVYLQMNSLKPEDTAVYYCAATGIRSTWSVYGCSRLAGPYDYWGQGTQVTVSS
4. NRCoV2-MRed11 VHH-Fc (Fc fusion, bivalent VHH-Fc) EVQLVESGGGLVQAGGSLRLSCAASGFTFSSYAMSWHRQAPGKGLEWVSAINSGGGSTSYADSVKGRFAISRDNAKNTLYLQMNSLKPEDTAVYYCATTISDGSSWSTKSYRGQGTQVTVSS
5. NRCoV2-S2B3 VHH-Fc (Fc fusion, bivalent VHH-Fc) QVQLVDSGGGLVQAGGSLRLSCAASASTFGDSAMGYYRQAPGKQRELVATISTGSNTNYADSVKGRFTISRDDAKNTVYLQMNSLKPEDTAVYYCNYRSIYYGQNFWGQGTQVTVSS
6. NRCoV2-MRed03 VHH-Fc (Fc fusion, bivalent VHH-Fc) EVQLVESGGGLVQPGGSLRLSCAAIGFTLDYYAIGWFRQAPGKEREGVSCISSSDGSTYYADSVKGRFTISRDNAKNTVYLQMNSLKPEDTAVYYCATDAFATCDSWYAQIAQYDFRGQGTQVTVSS
7. NRCoV2-S2G3 VHH-Fc (Fc fusion, bivalent VHH-Fc) QVQLVQSGGGSVQAGGSLRLSCAASGSTFGIFLMGWRRQAPGKQRELVAHITSGGATNYADSVKGRFTISRDNAKNTVYLQMNSLEPEDTAVYYCYTTKRDDASVYWGQGTQVTVSS

Result:
[8.2, 0.5, 6.6, 2.9, 6.5, 15.1, 0.3]

Values from patent US20240270826A1
